- targetOfAssay: Diacylglycerol O-acyltransferase 1 (Homo sapiens, UniProt O75907)
- Sequence (O75907 whole entry): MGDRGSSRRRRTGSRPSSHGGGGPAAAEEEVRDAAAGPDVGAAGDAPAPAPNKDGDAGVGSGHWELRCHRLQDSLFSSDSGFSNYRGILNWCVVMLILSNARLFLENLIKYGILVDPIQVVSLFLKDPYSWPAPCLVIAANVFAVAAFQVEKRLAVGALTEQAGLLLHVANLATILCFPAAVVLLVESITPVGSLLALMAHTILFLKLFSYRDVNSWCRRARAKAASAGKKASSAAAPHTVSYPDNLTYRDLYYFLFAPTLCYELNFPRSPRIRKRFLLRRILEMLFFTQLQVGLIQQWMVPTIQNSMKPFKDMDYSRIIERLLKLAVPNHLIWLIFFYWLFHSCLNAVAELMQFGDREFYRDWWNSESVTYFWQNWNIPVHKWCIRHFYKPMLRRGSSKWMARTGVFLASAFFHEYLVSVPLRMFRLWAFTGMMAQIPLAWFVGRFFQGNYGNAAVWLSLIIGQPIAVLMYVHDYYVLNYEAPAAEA
valueKind: IC50 (nM)
Provide only the numeric value, understood in nM.

For O=C(Nc1ccc(C2CCN(C(=O)[C@H]3CC[C@H](C(=O)O)CC3)CC2)cc1)c1nc(-c2ccccc2)oc1C(F)(F)F the compound record lists IC50 as 114

Sourced from ChEMBL document CHEMBL3232961
